# target-or-system: Human TRPC6 (Homo sapiens)
# Construct: expressed in transfected cells
# Sequence (Q9Y210 whole entry): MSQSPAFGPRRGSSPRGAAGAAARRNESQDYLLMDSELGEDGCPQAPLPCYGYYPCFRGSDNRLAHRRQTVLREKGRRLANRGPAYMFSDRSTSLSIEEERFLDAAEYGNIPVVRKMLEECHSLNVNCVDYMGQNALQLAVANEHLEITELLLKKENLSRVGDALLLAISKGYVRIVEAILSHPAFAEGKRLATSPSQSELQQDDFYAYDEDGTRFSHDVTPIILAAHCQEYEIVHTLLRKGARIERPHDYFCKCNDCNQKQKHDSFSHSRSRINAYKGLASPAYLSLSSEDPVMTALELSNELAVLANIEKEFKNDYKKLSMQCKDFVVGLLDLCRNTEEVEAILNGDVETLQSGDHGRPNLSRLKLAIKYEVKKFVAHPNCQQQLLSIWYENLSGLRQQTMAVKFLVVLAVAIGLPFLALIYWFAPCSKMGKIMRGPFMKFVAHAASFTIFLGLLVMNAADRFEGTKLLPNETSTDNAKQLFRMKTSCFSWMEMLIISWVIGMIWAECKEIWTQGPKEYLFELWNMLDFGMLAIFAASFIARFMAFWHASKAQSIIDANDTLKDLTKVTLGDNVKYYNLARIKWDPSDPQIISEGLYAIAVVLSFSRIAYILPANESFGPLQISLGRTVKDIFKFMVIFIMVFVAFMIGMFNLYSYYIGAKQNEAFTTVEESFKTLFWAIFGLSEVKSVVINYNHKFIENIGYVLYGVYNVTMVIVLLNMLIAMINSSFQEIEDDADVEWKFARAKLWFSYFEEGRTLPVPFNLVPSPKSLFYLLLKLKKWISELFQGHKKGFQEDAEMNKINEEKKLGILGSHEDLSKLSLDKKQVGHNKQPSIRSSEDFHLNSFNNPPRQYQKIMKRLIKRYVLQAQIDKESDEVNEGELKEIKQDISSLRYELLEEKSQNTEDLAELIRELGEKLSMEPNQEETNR
# experiment: Evaluation of TRPC6 channel inhibitory activity (1), FLIPR Calcium 5 Assay Kit, OAG stimulation (Compound Nos. 1-1293)
# Assay type: cell-based
# conditions: Human TRPC6 stably-expressing cells, OAG 30 μM, FLIPR Calcium 5 Assay Kit; read-out: Inhibitory activity (pIC50 class) (converted)
# Lookup of reported IC50 keyed by entry

compound	IC50
Cc1cc(Oc2cc(C#N)ccc2-c2ncc(C(C)N)cn2)cc(N2CCOCC2)n1 (centres unmarked)	< 10 nM

# lookup: Human TRPC6 (Homo sapiens) IC50, key = COC(c1cnc(-c2ccccc2)s1)c1cc(C#N)ccc1-c1ccc(CCN)cc1 (centres unmarked) > 1000 nM

# lookup: Human TRPC6 (Homo sapiens) IC50, key = COCCCNCCc1ccc(-c2ccc(C#N)cc2Oc2cc(N3CCOCC3)nc(C)n2)cc1 > 1000 nM

# lookup: Human TRPC6 (Homo sapiens) IC50, key = N#Cc1ccc(-c2ccc(CCN)cn2)c(C(=O)c2nnc(N3CCOCC3)o2)c1 10 to 1000 nM

# lookup: Human TRPC6 (Homo sapiens) IC50, key = CC(C)n1nc(C2CC2)cc1Oc1cc(C#N)ccc1-c1ccc([C@@H](O)CN)cn1 < 10 nM

# lookup: Human TRPC6 (Homo sapiens) IC50, key = Cc1cc(Oc2cc(C#N)ccc2-c2ncc(CCN)cn2)cc(-c2nccs2)n1 10 to 1000 nM

# lookup: Human TRPC6 (Homo sapiens) IC50, key = Cc1nc(N2CCOCC2)cc(C2(c3cc(C#N)ccc3-c3ccc(CCN)cc3)CC2)n1 10 to 1000 nM

# lookup: Human TRPC6 (Homo sapiens) IC50, key = Cc1nc(Oc2cc(C#N)ccc2-n2cc([C@H](O)CN)cn2)cc(-c2ccccc2Cl)n1 10 to 1000 nM
